assay: RP, Waters CORTECS T3, 100 × 2.1 mm, 2.7 µm, 0.2 mL/min, estimated dead time 1.1 min; A: water + 0.1% formic acid, pH 3; B: methanol + 0.1% formic acid, pH 3; gradient (min/%B) 0/0 1/0 6/5 30/100 35/100 35.1/0 40/0; settings: stereoisomer not certain
Measured LC retention time values are reported for all entries that follow.
Please append the unit to your numeric answer.

Find the recorded LC retention time belonging to O=c1[nH]c(=O)c2[nH]cnc2[nH]1 and report it.
3.32 min

Find the recorded LC retention time belonging to Cc1cc2nc3c(=O)[nH]c(=O)nc-3n(CC(O)C(O)C(O)CO)c2cc1C (stereo not drawn) and report it.
14.7 min

Find the recorded LC retention time belonging to CC(=O)N[C@H](Cc1c[nH]c2ccccc12)C(=O)O and report it.
15.7 min

Find the recorded LC retention time belonging to CC(=O)N[C@@H](CC(=O)O)C(=O)O and report it.
1.42 min

Find the recorded LC retention time belonging to O=c1ccn(C2OC(COP(=O)(O)O)C(O)C2O)c(=O)[nH]1 (stereo not drawn) [URIDINE-5-MONOPHOSPHATE] and report it.
1.35 min

Find the recorded LC retention time belonging to O=C(O)CCCCCCC(=O)O and report it.
16.1 min

Find the recorded LC retention time belonging to Nc1nc2c(ncn2C2OC(COP(=O)(O)O)C(O)C2O)c(=O)[nH]1 (stereo not drawn) [GUANOSINE 5'-MONOPHOSPHATE] and report it.
1.35 min

Find the recorded LC retention time belonging to O=C(O)c1ccc2ccccc2c1[O-] [1-HYDROXY-2-NAPHTHOATE] and report it.
23.3 min

Find the recorded LC retention time belonging to CC(=O)NCCCC(=O)[O-] [4-ACETAMIDOBUTANOATE] and report it.
5.13 min

Find the recorded LC retention time belonging to O=C([O-])CCc1ccccc1O [3-(2-HYDROXYPHENYL)PROPANOATE] and report it.
15.9 min

Sourced from the RepoRT retention time repository (doi:10.1016/j.jchromb.2020.122105)
